Reported pIC50 is given for each of the following molecules.
# Subject of test: AChE (Rattus norvegicus, UniProt P37136)
# Construct: the use of crude homogenised from rat’s brain structures, as used in the present work; from tissue; host or cells: Wistar rat cerebral cortex, homogenate supernatant
# Sequence (P37136 32-614): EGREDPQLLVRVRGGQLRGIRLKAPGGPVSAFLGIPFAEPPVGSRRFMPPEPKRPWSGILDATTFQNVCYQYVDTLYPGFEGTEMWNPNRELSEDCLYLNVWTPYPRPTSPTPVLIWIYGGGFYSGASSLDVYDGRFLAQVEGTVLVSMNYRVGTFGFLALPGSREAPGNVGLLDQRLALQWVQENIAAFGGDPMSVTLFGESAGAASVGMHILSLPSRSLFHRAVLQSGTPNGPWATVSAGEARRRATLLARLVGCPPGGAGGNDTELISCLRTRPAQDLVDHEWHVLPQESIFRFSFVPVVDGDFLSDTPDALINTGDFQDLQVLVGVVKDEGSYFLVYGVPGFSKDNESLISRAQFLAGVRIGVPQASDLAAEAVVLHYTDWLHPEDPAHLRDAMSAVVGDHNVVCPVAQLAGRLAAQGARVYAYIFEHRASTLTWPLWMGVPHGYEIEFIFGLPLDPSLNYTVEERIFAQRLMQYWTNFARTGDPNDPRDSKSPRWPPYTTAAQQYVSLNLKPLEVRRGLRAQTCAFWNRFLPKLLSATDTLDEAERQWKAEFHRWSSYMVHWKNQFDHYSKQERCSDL
# Test details: In vitro AChE activity (Ellman method) in cerebral cortex homogenate
# Type: biochemical
# Condition context: rat cerebral cortex homogenate; calculated with GraphPad Prism 5; read-out: IC50 of AChE inhibition, Cortex
pIC50: −log10 of the molar value.

Cc1ccc(C2SCC(=O)N2CCN2CCCC2)cc1 (stereo not drawn); < 3.60

Reported pIC50, molecule O=C1CSC(c2ccccc2[N+](=O)[O-])N1CCN1CCCC1 (stereo not drawn) : ____
< 3.60

Reported pIC50, molecule COc1cccc(C2SCCC(=O)N2CCN2CCCC2)c1 (stereo not drawn) : ____
4.62

Reported pIC50, molecule O=C1CSC(c2ccc(Cl)cc2)N1CCN1CCCC1 (stereo not drawn) : ____
< 3.60

Reported pIC50, molecule O=C1CCSC(c2ccccc2[N+](=O)[O-])N1CCN1CCCC1 (stereo not drawn) : ____
4.96

Reported pIC50, molecule O=C1CSC(c2ccccc2)N1CCN1CCCC1 (stereo not drawn) : ____
< 3.60

* * *

# Subject of test: AChE (Rattus norvegicus)
# Construct: the use of crude homogenised from rat’s brain structures, as used in the present work; from tissue; host or cells: Wistar rat cerebral cortex, homogenate supernatant
# Test details: In vitro AChE activity (Ellman method) in hippocampus homogenate
# Assay type: biochemical
# Condition context: rat hippocampus homogenate; calculated with GraphPad Prism 5; read-out: IC50 of AChE inhibition, Hippocampus
# Experimental: In vitro was evaluated the potential inhibition of thiazolidin-4-ones and thiazinan-4-ones against AChE activity enzyme in hippocampus and cerebral cortex of Wistar rats (60 days, 250–300 g), since it is well described that these two structures in the brain play an important role in memory. All procedures involving the animals were approved by the Committee of Ethics in Animal Experimentation of UFPel (CEEA 9219). The animals were submitted to euthanasia and the brain was removed. […]
Readout kind: IC50

COc1ccc(C2SCC(=O)N2CCN2CCCC2)cc1 (stereo not drawn); > 250 µM
O=C1CSC(c2ccc(Cl)cc2)N1CCN1CCCC1 (stereo not drawn); > 250 µM

Below: the item to evaluate.
Param readout= IC50; system= AChE (Rattus norvegicus); entry= Cc1ccc(C2SCC(=O)N2CCN2CCCC2)cc1 (stereo not drawn) ; returns value.
> 250 µM
